The reported numbers originate from PubChem BioAssay (NCI).

Below is a list of entries, each paired with its recorded TGI value.
Tested on: T-47D breast
Experiment: NCI tumour cell line growth inhibition, 48 h

In the examples that follow, each entry is paired with its recorded TGI.
>  <compound structure>
COc1ccccc1C#Cc1ccccc1C#CCCCCCC#Cc1ccccc1C#Cc1ccccc1OC

>  <TGI>
> 100 µM

$$$$
>  <compound structure>
Cc1cn(CC2=NCC(C)(C)N2)c(=O)[nH]c1=O

>  <TGI>
> 100 µM

$$$$
>  <compound structure>
C=CCNC(=O)NC1=CSC2=NC(=O)C3(NN12)c1ccccc1-c1ccccc13

>  <TGI>
> 10 µM

$$$$

Input line: Please report the recorded TGI for O=C(OCc1ccccc1)C1(N2CN(C3(C(=O)OCc4ccccc4)CCCC3)CN(C3(C(=O)OCc4ccccc4)CCCC3)C2)CCCC1 .
Output line: > 10 µM

Input line: Also need CN(C)Cc1cc(O)c(O)c(CN(C)C)c1 , thanks.
Output line: > 100 µM

Input line: Also need CN(C)C(=O)c1cc2cnc(Nc3ccc(-c4csc5c(=O)cc(N6CCOCC6)oc45)cc3)nc2n1C1CCCC1 , thanks.
Output line: > 100 µM
